The measured values listed here are drawn from patent US20230028441A1.

Items are presented alongside their recorded mortality at 100 g/ha.
# Test system: fall armyworm larvae (Spodoptera frugiperda)
# Experiment notes: Spodoptera frugiperda spray test (maize leaf sections)
# Type: in vivo
# Condition label: 168 h
Answer with a number only, understood to be in %.

Worked set:
Compound | Experimental readout | Experimental value
CNc1nc([C@H](C)NC(=O)c2cc(Cl)cc(C(C)(C)C#N)c2)n(-c2ncccn2)n1 [I-137] | mortality at 100 g/ha | 100
CC(NC(=O)c1cc(Cl)cc(C(F)(F)F)c1)c1nc([S+](C)[O-])nn1-c1ccc(Cl)cn1 (centres unmarked) [I-064] | mortality at 100 g/ha | 100
CNc1nc([C@H](C)NC(=O)c2cc(Cl)cc(S(=O)(=O)C(F)F)c2)n(-c2ncccn2)n1 [I-202] | mortality at 100 g/ha | 100

Quick check: mortality at 100 g/ha of CC(NC(=O)c1cc(Cl)cc(C(F)(F)F)c1)c1nc(NC(=O)CC(F)(F)F)nn1-c1ccc(Cl)cn1 (centres unmarked) [I-016] ?
100

Another compound to look at: CNc1nc([C@H](C)NC(=O)c2cc(C3CC3)cc(S(=O)(=O)C(F)(F)F)c2)n(-c2ncccn2)n1 [I-183]
100
